test system: LOX IMVI; test: NCI tumour cell line growth inhibition, 48 h
Calls of active or inactive are those of the source. No stated cut-off is given here; in the data, active = GI50 up to about 1.1 µM and inactive = higher.
Select the matching outcome among active, inactive

Check out these entries, answers already filled in.
compound	cat
COc1ccc(-c2cc(-c3ccc(C)cc3)n(C3OC(COC(C)=O)C(OC(C)=O)C(OC(C)=O)C3OC(C)=O)c(=S)c2C#N)cc1 (stereo not drawn)	inactive
[N-]=[N+]=Nc1c(Br)c(=O)[nH]c(=O)n1COCCO	inactive

Please state the recorded outcome for this compound: O=C1CC(=O)c2c(Cl)sc(Cl)c21
inactive

Also need CC(C)OP(=O)(OC(C)C)/C(C#N)=C/c1c[nH]c2ccccc12 , thanks.
inactive

What do we get for COC1(OC)CCCCC2c3cccc(OC(C)=O)c3C21OC(C)=O (stereo not drawn) ?
inactive

Please answer likewise for CCOC(=O)c1c(NS(=O)(=O)c2ccc(Br)cc2)sc2c1CCCC2
inactive

Same thing, different compound: CC1CC[C@]2(C(=O)O)CCC3(COC(=O)/C=C\c4ccc(O)cc4)C(=CCC4[C@@]5(C)CC[C@H](O)C(C)(C)C5CC[C@]43C)[C@@H]2[C@H]1C (stereo partly drawn)
inactive

What about CC1OC(O[C@@H]2C=C3CC[C@@H]4[C@H](CC[C@]5(C)[C@@H](c6ccc(=O)oc6)CC[C@]45O)[C@@]3(C)CC2)C(O)C(OC2OC(CO)C(O)C(O)C2O)C1O (stereo partly drawn) ?
active

====

Entries and their GI50 values follow.
tested on: NCI/ADR-RES; assay: NCI tumour cell line growth inhibition, 48 h
Active and inactive are the calls of the source. Cut-off read from the data, not from the text of the source: active = GI50 up to about 1.1 µM and inactive = higher.

>>> print(df.to_string())
                                   compound  quantity_name             measured
0  OC1CCC(COC(c2ccccc2)(c2ccccc2)c2ccccc2)O1 (stereo not given)           GI50   17.7 µM (inactive)
1              N#CC(C#N)=NNc1ccc2cn[nH]c2c1           GI50  > 100 µM (inactive)
2           COc1cccc(/C=C\c2ccnc3ccccc23)c1           GI50   > 10 µM (inactive)
3  COC(=O)/C=C1\C(=O)C=C2[C@@H]3C[C@H]4C[C@H](CC[C@@]4(C)N21)C3(C)NC(C)=O (stereo not given in full)           GI50   26.5 µM (inactive)

Consider the record given below.
Reported GI50, compound CCOC(=O)/C(=C\c1c[nH]c2ccccc12)P(=O)(OCC)OCC : ____
25.3 µM (inactive)

====

test system: NCI-H23; experiment: NCI tumour cell line growth inhibition, 48 h
Calls of active or inactive are those of the source. Rule as the data show it: active = GI50 up to about 1.1 µM and inactive = higher.
Field 'call' accepts active, inactive

Use these answered entries as a reference point.
compound	cat
COc1ccccc1Nc1nc(N)nc(N)c1N	inactive
COc1cc2c3c(c1OC)C1(C=CC(=O)C=C1)CC3N(C(=O)OC(C)(C)C(Cl)(Cl)Cl)CC2 (stereo unspecified)	inactive
CCOC(=O)c1oc2ccc([N+](=O)[O-])c3c2c1CCC3	inactive
O=C(O)C1(Cc2ccccc2)Cc2ccccc2C1	inactive

Hi team, can someone confirm the assay call for Oc1ccc(Br)cc1/C=N/c1cccc(C(F)(F)F)c1 ?
inactive

Thanks! And Nc1ncnc2c1cnn2Cc1cn(COCC(O)CO)nn1 (stereo unspecified) ?
inactive
